Provide the reported TGI of each item.
- Tested on: 786-0 renal
- EXPERIMENTAL_PROTOCOL: NCI tumour cell line growth inhibition, 48 h

query: Consider the molecule O=S(=O)(N1CCCCN(S(=O)(=O)C(F)(F)F)CCCN(S(=O)(=O)C(F)(F)F)CCCCN(S(=O)(=O)C(F)(F)F)CCCN(S(=O)(=O)C(F)(F)F)CCCCN(S(=O)(=O)C(F)(F)F)CCCN(S(=O)(=O)C(F)(F)F)CCCCN(S(=O)(=O)C(F)(F)F)CCC1)C(F)(F)F . State its measured TGI.
result: > 100 µM

query: Input CN1CCC(n2cnc(-c3ccc(F)cc3)c2-c2ccnc(Nc3ccccc3)n2)CC1 , output reported TGI.
result: > 25 µM

query: Please list TGI recorded for the molecule COc1ccc(-c2cncn2-c2ccc(-c3nc4cc(OC)c(OC)c(OC)c4s3)cc2)cc1N
result: > 100 µM

query: Provide one value: measured TGI of COc1ccc(N2C(=O)C3c4[nH]c5ccc(OC)cc5c4C4CCC(c5ccccc5)CC4C3C2=O)cc1 (stereo not drawn)
result: 12.2 µM

query: Please list TGI recorded for the molecule COc1cc2c3c(n(CCCN=[N+]=[N-])c(=O)c2cc1OC)-c1ccc(NC(C)=O)cc1C3=O
result: > 50 µM

query: Read off the recorded TGI for O=C1c2ccccc2-c2c1c1ccc3ccccc3c1n2-c1ccccc1
result: 53.9 µM

query: Read the entry CN1CCN(c2ccc3nc(-c4ccc5nc(CCCc6ccc(N(CCCl)CCCl)cc6)[nH]c5c4)[nH]c3c2)CC1 and write its reported TGI.
result: > 100 µM

query: Note TGI for the molecule shown: CCCCCCCCCc1cc(=O)c2c(O)cc(O)cc2o1
result: 42.8 µM

Origin of values: PubChem BioAssay (NCI)
